Item-by-item account of half-life
# assay_text: Drug metabolism test (pharmacokinetics, oral, mice)
# Assay type: in vivo, ICR mice
# measurement_parameters: male, ICR, mouse, po, orally (intragastric), 10 mg/kg, plasma
Your answer is read as h, so omit the unit and give the number.

molecule="N#CC1(c2ccc(OC(F)(F)F)cc2)CCN(c2ncc(CN[C@@H]3COc4nc([N+](=O)[O-])cn4C3)cn2)CC1 [Compound 24]" measurement=3.52
molecule="O=[N+]([O-])c1cn2c(n1)OC[C@@H](NCc1ccc(N3CCC(Oc4ccc(OC(F)(F)F)cc4)CC3)nc1)C2 [Compound 1]" measurement=4.76
molecule="O=[N+]([O-])c1cn2c(n1)OC[C@@H](NCc1cnc(N3CCN(c4ccc(C(F)(F)F)cc4)CC3)nc1)C2 [Compound 31]" measurement=3.05

Query: For CC1CN(c2ncc(CN[C@@H]3COc4nc([N+](=O)[O-])cn4C3)cn2)CCN1c1ccc(OC(F)(F)F)cc1 (some centres unmarked) [Compound 19] , write its half-life.
Reply: 3.17

Query: For O=[N+]([O-])c1cn2c(n1)OC[C@@H](NCc1cnc(N3CCN(c4ccc(OC(F)(F)F)cc4)CC3)nc1)C2 [Compound 18] , write its half-life.
Reply: 5.29

----------
# assay_text: Drug metabolism test (pharmacokinetics, oral, mice)
# Assay type: in vivo, ICR mice
# measurement_parameters: male, ICR, mouse, po, orally (intragastric), 10 mg/kg, plasma
Item-by-item account of half-life
Your answer is read as h, so omit the unit and give the number.

Record excerpt, results attached:
compound=O=[N+]([O-])c1cn2c(n1)OC[C@@H](NCc1ccc(N3CCN(c4ccc(OC(F)(F)F)cc4)CC3)nc1)C2 observation_type=half-life u=h measurement=3.38
compound="CC1CN(c2ccc(OC(F)(F)F)cc2)CCN1c1ncc(CN[C@@H]2COc3nc([N+](=O)[O-])cn3C2)cn1 (stereo partly shown)" observation_type=half-life u=h measurement=2.98
compound=N#CC1(c2ccc(OC(F)(F)F)cc2)CCN(c2ccc(CN[C@@H]3COc4nc([N+](=O)[O-])cn4C3)cn2)CC1 observation_type=half-life u=h measurement=3.35

Query: For Cc1nc(N2CCN(c3ccc(OC(F)(F)F)cc3)CC2)ncc1CN[C@@H]1COc2nc([N+](=O)[O-])cn2C1 , write its half-life.
Reply: 2.87

----------
# assay_text: Drug metabolism test (pharmacokinetics, oral, mice)
# Format: in vivo, ICR mice
# measurement_parameters: male, ICR, mouse, po, orally (intragastric), 10 mg/kg, plasma
Would you mind labelling by MRT? At or over 5 h is Criterion met, under is Criterion not met.

molecule="O=[N+]([O-])c1cn2c(n1)OC[C@@H](NCc1ccc(N3CCN(c4ccc(OC(F)(F)F)cc4)CC3)nc1)C2 [Compound 4]" label_class="Criterion met"
molecule="N#CC1(c2ccc(OC(F)(F)F)cc2)CCN(c2ncc(CN[C@@H]3COc4nc([N+](=O)[O-])cn4C3)cn2)CC1 [Compound 24]" label_class="Criterion not met"
molecule="O=[N+]([O-])c1cn2c(n1)OC[C@@H](NCc1ccc(N3CCC(Oc4ccc(OC(F)(F)F)cc4)CC3)nc1)C2 [Compound 1]" label_class="Criterion met"

Lab note: next molecule to report on.
Query: Check if MRT >= 5 h (inclusive). Item: CC1CN(c2ccc(OC(F)(F)F)cc2)CCN1c1ncc(CN[C@@H]2COc3nc([N+](=O)[O-])cn3C2)cn1 (some centres unmarked) [Compound 20]
Reply: Criterion not met
